Values from ChEMBL document CHEMBL4828742

- measurement-description: Inhibition of Influenza A virus H5N1 neuraminidase
- Design: species or system H5N1 subtype
Consider the following compounds; for each one, report its pIC50.
Scale: negative log10 of molar concentration, which is what pIC50 denotes.

Provide one value: measured pIC50 of CCOC(=O)c1c(NC(=O)COc2cccc3ncccc23)sc(C(=O)OC)c1C
7.40

Supply pIC50 value. Item: CCOC(=O)c1c(NC(=O)COc2ccc(C=O)cc2)sc(C(=O)OC)c1C
5.05

# return recorded pIC50 for input CCOC(=O)c1c(NC(=O)COc2ccc(C=O)cc2OC)sc(C(=O)OC)c1C
5.36

Return pIC50 for the following compound: CCOC(=O)c1c(NC(=O)COc2ccc3ncccc3c2)sc(C(=O)OC)c1C
7.52

Name the recorded pIC50 of the compound listed here: CCOC(=O)c1c(NC(=O)COc2ccccn2)sc(C(=O)OC)c1C
6.02

Please indicate pIC50 recorded for CCOC(=O)c1c(NC(=O)COc2ccc(NC(C)=O)cc2)sc(C(=O)OC)c1C
7.30

Report measured pIC50; entry is CCOC(=O)c1c(NC(=O)COc2cccc(C(C)=O)c2)sc(C(=O)OC)c1C
5.32

State its pIC50 for this compound: CCOC(=O)c1c(NC(=O)COc2cccc(C=O)c2)sc(C(=O)OC)c1C
5.25

For CCOC(=O)c1c(NC(=O)COc2cc(Br)ccc2OC)sc(C(=O)OC)c1C , write its pIC50.
6.62

State its pIC50: CCOC(=O)c1c(NC(=O)COc2ccc(C=O)cc2OCC)sc(C(=O)OC)c1C
7.15

----------
- measurement-description: Selectivity index, ratio of CC50 for cytotoxicity against dog MDCK cells to EC50 for antiviral activity against Influenza A virus (A/chicken/Hubei/327/2004(H5N1)) infected in dog MDCK cells
- Assay type: toxicity, cell-based
- condition-description: read-out: Ratio CC50/EC50
result-type: selectivity ratio

Quick one: give measured selectivity ratio for CCOC(=O)c1c(NC(=O)COc2ccc3ncccc3c2)sc(C(=O)OC)c1C
> 500
